- Test system: UACC-62
- Assay text: NCI tumour cell line growth inhibition, 48 h
Active and inactive are the calls of the source. No stated cut-off is given here; in the data, active = GI50 up to about 1.1 µM and inactive = higher.
Reported endpoint: GI50

{"Compound": "CC[N+]1(C)CCC(O)(c2ccc(C)cc2)C(C(=O)c2ccc(C)cc2)C1 (centres undefined)", "GI50": "> 100 µM (inactive)"}
{"Compound": "COC1=CC(=O)[C@]2(C)[C@H](C1=O)C(C)[C@H]2c1ccc(OC)cc1 (some centres undefined)", "GI50": "> 100 µM (inactive)"}
{"Compound": "COc1ccc2[nH]c3c(c2c1)CCN(C)CC3", "GI50": "> 100 µM (inactive)"}
{"Compound": "CN(C)/C=N\\c1cccc2c1NSN2", "GI50": "> 100 µM (inactive)"}
{"Compound": "CNNC1=NS(=O)(=O)c2cc(C#N)c(Cl)cc2S1", "GI50": "> 10 µM (inactive)"}
{"Compound": "O=C(NCCCCCCNC(=O)n1cc(F)c(=O)[nH]c1=O)NCCCOCCOCCOCCOCCOCCOCCOCCOCCOCCOCCOCCOCCOCCOCCOCCOCCOCCOCCOCCOCCOCCCNC(=O)C(O)C(O)C(OC1OC(CO)C(O)C(O)C1O)C(O)CO (centres undefined)", "GI50": "27.9 µM (inactive)"}

For the 3 compounds below, give their GI50 values.
1. COC(=O)C(=O)C(C(=O)C(=O)Nc1ccccc1C(N)=O)c1nc2ccc(Cl)cc2nc1O (centres undefined)
2. CC(C)(C)C(=O)CC1=Nc2ccccc2SC1(O)CC(=O)C(C)(C)C (centres undefined)
3. N#Cc1cc(NC(=O)c2ccccc2)c(=O)n2c1[nH]c1ccccc12

[out]
1: > 100 µM (inactive); 2: 11.8 µM (inactive); 3: 17.4 µM (inactive)

----------
- System: EKVX
- Assay text: NCI tumour cell line growth inhibition, 48 h
Calls of active or inactive are those of the source. No stated cut-off is given here; in the data, active = GI50 up to about 1.1 µM and inactive = higher.
Reported endpoint: GI50

{"Compound": "O=c1[nH]n(Cc2ccccc2Cl)c2ccccc12", "Measurement target": "EKVX", "GI50": "> 100 µM (inactive)"}
{"Compound": "CC(=O)C(=O)NC1/C=C(C)\\C=C/C(O)C/C=C(C)\\C=C/C(O)CC2OC(=O)C1(C)C(=O)C2C (stereo not given)", "Measurement target": "EKVX", "GI50": "> 100 µM (inactive)"}
{"Compound": "Cc1nc2c(nc1C)C(=O)c1cc(O)ccc1C2=O", "Measurement target": "EKVX", "GI50": "> 100 µM (inactive)"}
{"Compound": "C=CCOC(C)(C)C1=CCC(C)CC1 (stereo not given)", "Measurement target": "EKVX", "GI50": "> 100 µM (inactive)"}
{"Compound": "Cc1cc(/N=N/c2c(O)ccc3ccccc23)ccc1/N=N/c1cccc([N+](C)(C)C)c1", "Measurement target": "EKVX", "GI50": "17.6 µM (inactive)"}

State the recorded GI50 for every item in the following list.
1. CC12CCC(C1)C(C)(C)C2OC(=O)c1ccccc1N (stereo not given)
2. N=C(N)NS(=O)(=O)c1ccc(NNc2c3ccccc3nc3c(C(=O)Nc4ccc(S(=O)(=O)Nc5ncccn5)cc4)cccc23)cc1
3. CSC(=S)N(C)c1nc(N(C)C)s[s+]1
4. COc1cccc(C=C2N=C(c3ccccc3)N(n3c(-c4ccccc4)nc4ccccc4c3=O)C2=O)c1
5. C=CCn1c(=O)c2ccccc2[n+]2c(C)c(C(=O)OCC)sc12

[out]
["15.6 µM (inactive)", "31.8 µM (inactive)", "> 100 µM (inactive)", "43.6 µM (inactive)", "> 100 µM (inactive)"]

----------
Exercise: for every item that follows, state its recorded GI50.
- System: HCC 2998
- Assay text: NCI tumour cell line growth inhibition, 48 h
Calls of active or inactive are those of the source. Rule as the data show it: active = GI50 up to about 1.1 µM and inactive = higher.

Example cases with answers are listed next.
{"Molecule": "COC(=O)C1CC(c2ccc(Cl)cc2)=NO1 (stereo unspecified)", "Measurement target": "HCC 2998", "GI50": "> 100 µM (inactive)"}
{"Molecule": "COc1ccc(N2C(=O)CC(=O)N(C(=O)CCCCCCCCC(=O)N3C(=O)CC(=O)N(c4ccc(OC)cc4)C3=S)C2=S)cc1", "Measurement target": "HCC 2998", "GI50": "> 100 µM (inactive)"}
{"Molecule": "COc1ccc2[nH]c3c(c2c1)CCN(C)CC3", "Measurement target": "HCC 2998", "GI50": "> 100 µM (inactive)"}
{"Molecule": "O=C(NCCCCCCNC(=O)n1cc(F)c(=O)[nH]c1=O)NCCCOCCOCCOCCOCCOCCOCCOCCOCCOCCOCCOCCOCCOCCOCCOCCOCCOCCOCCOCCOCCOCCCNC(=O)C(O)C(O)C(OC1OC(CO)C(O)C(O)C1O)C(O)CO (stereo unspecified)", "Measurement target": "HCC 2998", "GI50": "1.71 µM (inactive)"}
{"Molecule": "Cc1ccc(S(=O)(=O)NC(=O)Nc2c(S(N)(=O)=O)cc(S(N)(=O)=O)c(Cl)c2Cl)cc1", "Measurement target": "HCC 2998", "GI50": "> 100 µM (inactive)"}

// each molecule listed below needs its GI50
1. COc1cc(O)c(Cc2ccccc2O)c(O)c1C(=O)CCc1ccccc1
2. O=S(=O)(CCBr)CCBr
3. Cc1c(CCOC=O)c(=O)[nH]c2nncn12
4. COC(=O)c1cc(O)ccc1O [METHYL 2,5-DIHYDROXYBENZOATE]

[out]
1. 6.1 µM (inactive)
2. 6.95 µM (inactive)
3. > 100 µM (inactive)
4. > 100 µM (inactive)

Below are some molecules; for each one, tell me its GI50.
1. [N-]=[N+]=Nc1c([N+](=O)[O-])c(=O)n2c3c(cccc13)CCC2
2. CCCCN(CCCC)C(=O)C(=O)C(C(=O)C(=O)OC)c1nc2ccccc2o1 (stereo unspecified)
3. COc1ccc2nccc(C3=CCC4CCN(C(=O)c5ccccc5)C3C4)c2c1 (stereo unspecified)
4. OC1C#CCSCC#C/C=C\1 (stereo unspecified)
5. CCCCN(CCCC)CCCCNc1c(C)cnc2cc(Cl)ccc12

[out]
["19.1 µM (inactive)", "> 100 µM (inactive)", "> 100 µM (inactive)", "> 100 µM (inactive)", "14.5 µM (inactive)"]

Please supply GI50 for each of the following items, keeping them in order.
1. CCOCc1cc(=O)c2c(OC)cc3c(c2o1)CCC(C)(C)O3
2. CSC1=C(c2ccc(Cl)cc2)SC(N2CCCCC2)N1c1ccc([N+](=O)[O-])cc1 (stereo unspecified)
3. CC(=O)NC1=C(NCCCl)C(=O)c2ccccc2C1=O

[out]
1. > 100 µM (inactive)
2. 41.9 µM (inactive)
3. 32.7 µM (inactive)

Please state GI50 for every molecule in the list that follows.
1. COc1cccc2c1CCc1ccccc1CC2=O
2. CCOC(=O)CCC(NC(=O)c1ccc(OCc2nc3cc(C(F)(F)F)ccc3nc2-c2ccccc2)cc1)C(=O)OCC (stereo unspecified)
3. CN1CCC2(CC1)/C(=N/C1CCCCC1)NC(=O)N2c1ccccc1
4. COC1=CC(=O)[C@]2(C)[C@H](C1=O)C(C)[C@H]2c1ccc(OC)cc1 (stereo partly specified)

[out]
["> 100 µM (inactive)", "> 10 µM (inactive)", "> 100 µM (inactive)", "> 100 µM (inactive)"]

----------
- Test system: EKVX
- Assay text: NCI tumour cell line growth inhibition, 48 h
Structures can show the parent of a compound that is named as a salt. The source made the active and inactive calls. Rule as the data show it: active = GI50 up to about 1.1 µM and inactive = higher.
Task for the reader: assign each of the following compounds its reported GI50.

Before answering, review these 3 worked examples.
{"Compound": "Cc1c2oc(=O)c(C#N)cc2c2ccccn12", "GI50": "> 100 µM (inactive)"}
{"Compound": "CC[N+]1(C)CCC(O)(c2ccc(C)cc2)C(C(=O)c2ccc(C)cc2)C1 (stereo not drawn)", "GI50": "> 100 µM (inactive)"}
{"Compound": "Cn1c(N/N=C/c2ccc(Cl)cc2)nc(-c2ccc(Cl)cc2)c(C#N)c1=O", "GI50": "25.6 µM (inactive)"}

Here are 4 compounds. What values of GI50 were reported for them?
1. O=C(C(=O)N1CCc2ccccc21)c1c[nH]c2ccccc12
2. Cc1cc2c(cc1Cl)SC(NNC1=NCCN1)=NS2(=O)=O
3. C/C(CN1C(=O)c2ccccc2C1=O)=N\NS(=O)(=O)c1ccc2ccccc2c1
4. N=c1ccn2c(n1)O[C@H]1[C@H](O)[C@@H](CO)O[C@H]12 [ANCITABINE HYDROCHLORIDE]

[out]
1: > 10 µM (inactive); 2: > 10 µM (inactive); 3: > 100 µM (inactive); 4: 62.1 µM (inactive)

[in] Give the observed GI50 of O=C(O)c1nc2cc(C(F)(F)F)ccc2nc1Nc1ccc(F)cc1 for EKVX.
[out] 21.9 µM (inactive)
